# tgt: RSV protein F of strain B Wash/18537 (RSV B Wash/18537 (ATCC number VR-1580)) (UniProt P13843)
# Sequence (P13843 26-574): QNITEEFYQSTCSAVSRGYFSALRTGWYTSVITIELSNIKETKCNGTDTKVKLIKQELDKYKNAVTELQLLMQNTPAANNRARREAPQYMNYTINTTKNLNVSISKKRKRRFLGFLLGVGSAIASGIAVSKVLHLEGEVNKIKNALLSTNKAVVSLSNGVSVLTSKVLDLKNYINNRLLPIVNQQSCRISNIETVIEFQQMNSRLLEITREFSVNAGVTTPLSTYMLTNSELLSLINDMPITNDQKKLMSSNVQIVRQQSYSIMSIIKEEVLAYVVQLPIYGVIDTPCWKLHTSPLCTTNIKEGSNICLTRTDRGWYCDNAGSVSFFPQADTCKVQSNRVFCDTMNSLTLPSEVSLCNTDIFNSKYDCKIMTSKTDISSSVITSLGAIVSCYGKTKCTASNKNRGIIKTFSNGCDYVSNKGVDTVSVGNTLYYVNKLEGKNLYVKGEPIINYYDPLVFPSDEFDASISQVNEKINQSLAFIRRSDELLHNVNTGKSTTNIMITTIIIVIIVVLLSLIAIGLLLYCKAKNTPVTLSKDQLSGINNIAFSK
# experimentSummary: cell-based or functional assay
measuredEndpoint: PRNT EC50 with complement, RSV 18537 (µg/mL)
Give bare numbers, in µg/mL.

Request: What PRNT EC50 with complement, RSV 18537 value was documented for this binder, antibody clone 827 (antibody, human IgG1, kappa, V domains shown) VH: QVQLVQSGAEVKKPGASVKVSCRVSGHTFTALSKHWMRQGPGGGLEWMGFFDPEDGDTGYAQKFQGRVTMTEDTATGTAYMELSSLTSDDTAVYYCATVAAAGNFDNWGQGTLVTVSS VL: DIQMTQSPSSLAASVGDRVTITCRASQFISSYLHWYQQRPGKAPKLLMYAASTLQSGVPSRFSGSGSGTDFTLTISSLQPEDFATYYCQQSYTNPYTFGQGTKLEIKR ?
Result: 0.1
